composite z-score overview
# assay details: small molecules captured by biotinylated probe aFSTL3 – biochemical, small-molecule microarray, fluorescence 635/667, stem cell growth factor project, primary screen (AID 1064);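 also: measures binding of the biotinylated anti-FSTL3 antibody to printed compounds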
# condition details: higher = more signal
Provide a numeric answer; units are not to be included.

# compound, measurement label, val
records = [
    ("CCCCCN1CC=CC23O[C@@H]4/C=C\\CCCOC(=O)C4[C@H]2C(=O)N(C(C)CO)[C@@H]3C1=O (stereo partly drawn)", "composite z-score", 0.378),
    ("CCOC(=O)C[C@H]1[C@H](OC(=O)Cc2ccc3c(c2)OCO3)[C@@H](NC(=O)c2ccc3ccccc3n2)c2cc(OCCCO)ccc2N1C(=O)c1ccc2ccccc2n1", "composite z-score", -0.5),
    ("C=CCNC(=O)[C@@H]1[C@H]2C(=O)O[C@H](c3ccccc3)[C@H](c3ccccc3)N2[C@H](c2ccccc2OCCO)[C@@]12C(=O)Nc1ccc(C#CCC(C(=O)OC)C(=O)OC)cc12", "composite z-score", -0.44),
    ("C=C[C@H](C)[C@H](OC(=O)Nc1ccc(SC)cc1)c1ccc(OCCO)cc1", "composite z-score", -0.0439),
    ("COc1ccc([Si](C)(C)[C@@H]2[C@@H](CC(=O)N3Cc4ccccc4C[C@H]3CO)O[C@]3(C(=O)N(Cc4ccc(N5C(=O)c6cccc7cccc5c67)cc4)c4ccccc43)[C@H]2C)cc1", "composite z-score", -0.184),
    ("Cc1ccc(S[C@]2(C(=O)NCC(F)(F)F)CC(=O)N(Cc3cc(C(F)(F)F)cc(C(F)(F)F)c3)[C@@H]2c2ccc(CO)cc2)cc1", "composite z-score", -0.26),
    ("COCCCNC(=O)[C@@]1(CCC(=O)OC(C)(C)C)N=C(c2ccc(OCCCO)cc2)O[C@H]1c1ccccc1N=[N+]=[N-]", "composite z-score", 0.913),
    ("COc1ccc([Si](C)(C)[C@@H]2[C@@H](CCO)O[C@]3(C(=O)N(Cc4ccccc4)c4ccc(N5C(=O)c6cccc7cccc5c67)cc43)[C@H]2C)cc1", "composite z-score", 0.107),
]

Endpoint output: composite z-score of CCOC(=O)C[C@H]1[C@H](OC(=O)c2ccccc2-c2ccccc2)[C@@H](NC(=O)c2ccc3ccccc3c2)c2cc(OCCCO)ccc2N1C(=O)c1ccccc1 . Value?
-0.421

Same again, this time with COC(=O)[C@@]1(Cc2ccc(OC)cc2)[C@H]2c3cc(C(=O)N4CCCC4)n(CCc4c[nH]c5ccc(OC)cc45)c3C[C@H]2CN1C(=O)c1ccccc1
1.49

Thanks! And Cc1ccc(C(C)CC(O)C2C=CC3C(=O)N(c4ccccc4)C(=O)C3N2Nc2ccccc2)o1 (stereo not drawn) ?
-0.172

Now consider O=C1O[C@@H](c2ccccc2)[C@@H](c2ccccc2)N2[C@@H](c3ccc(O)cc3)[C@]3(C(=O)Nc4ccc(C#CCCO)cc43)[C@@H](C(=O)N3CCN(c4ncccn4)CC3)[C@H]12 and answer again.
-1.14

Would you kindly repeat that for C=CCN1C(=O)[C@]2(CCS(=O)(=O)c3ccccc3)N=C(c3ccc(OCCCO)cc3)O[C@@H]2c2ccccc21 ?
-0.104

###

# assay details: JC-1 mitochondrial signal, unstimulated MM1S myeloma – cell-based, JC-1 fluorescence, 24 h, 100 nL compound, profiling panel (AID 1170); also: test concentration not given here
# condition details: MM1S mitochondrial potential, higher = more signal
measurement label: z-score

Some entries whose results are on file:
# molecule, val
rows = [
    ("CCOC(=O)C=Cc1cccc(C)c1O", -1.16),
    ("CC(C)=C1C(=O)C(c2ccccc2)=C2CN3C(=O)N(CCc4ccccc4)C(=O)[C@]3(Cc3ccc(C(F)(F)F)cc3)[C@H]21", -0.746),
    ("O=C(NCCN1CCOCC1)[C@@H]1c2ccccc2C(=O)N(C2Cc3ccccc3C2)[C@H]1c1ccc(CO)cc1", 0.291),
    ("COC(=O)[C@@]1(Cc2ccccc2)[C@H]2c3cc(C(=O)N(C)C)n(Cc4ccc(C)o4)c3C[C@H]2CN1C(=O)c1ccccc1", -1.88),
    ("COC(=O)C1=CC(CCCO)=CC(c2cccs2)N(Cc2cccc(OC(F)(F)F)c2)C=C1C(=O)OC (stereo not drawn)", -0.512),
]

For the molecule COC(=O)[C@@]1(Cc2ccc(OC)cc2)[C@H]2c3cc(C(=O)N4CCCC4)n(CCc4c[nH]c5ccc(O)cc45)c3C[C@H]2CN1C(=O)c1ccccc1 , what z-score is on record?
-0.401

Same for COC(=O)c1c(CC[C@@H](CO)NC(=O)N2CCC[C@H]2Cn2cc(C3(O)CCCCC3)nn2)oc(C(C)=O)c1C(=O)OC
-0.38

Next up: C=C(COC)/C(=C/C[C@H](OC(=O)c1ccncc1)c1ccc(CO)o1)c1cnc2ccccc2c1
-0.592

###

# measured target: Focal adhesion kinase 1 (Homo sapiens)
# assay details: PTK2 protein binding on printed compound slides – biochemical, small-molecule microarray, 635/667 nm fluorescence, BSA, DTT, primary screen (AID 1130);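 also: composite of spot emission at 667 nm and signal to noise over triplicate slides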
# condition details: 635 nm fluorescence, higher = more signal
Threshold rule: composite z-score greater than or equal to 0.2 is rule met; below that, rule not met.

Observe how each entry below is paired with its result.
# compound, label class
data = [
    ("CC(C)[Si](C#CCCCC#N)(O[C@H](c1ccccc1)c1cn(Cc2ccccc2)nn1)C(C)C", "rule not met"),
    ("NCCCCCCNC(=O)[C@@H]1C[C@@H]2C(=O)N[C@@H](CCCCN)C(=O)N2[C@@H]1c1ccc(O)cc1", "rule met"),
    ("CCCC=C(CCC)[C@@H](NC(=O)C(C)(C)C)c1ccc(C(=O)OC)cc1", "rule met"),
    ("CC(C)c1ccc(NN2C(C(O)c3ccc(C#N)cc3)C=CC3C(=O)N(c4ccccc4)C(=O)C32)cc1 (stereo unspecified)", "rule met"),
    ("CCCCC(CC)C(O)C1C=CC2C(=O)N(c3ccccc3)C(=O)C2N1Nc1ccccc1F (stereo unspecified)", "rule not met"),
]

Given CCCNC(=O)[C@@]1(C)c2ccccc2C(=O)N(c2ccc(C)cn2)[C@H]1c1ccc(CO)cc1 , state whether its composite z-score is at least 0.2.
rule met

Check Cc1ccc(S[C@]2(C(=O)NCC(F)(F)F)CC(=O)N(Cc3cc(C(F)(F)F)cc(C(F)(F)F)c3)[C@@H]2c2ccc(CO)cc2)cc1 too.
rule not met

Likewise for COc1ccc([Si](C)(C)[C@@H]2[C@@H](CCO)O[C@]3(C(=O)N(Cc4cccc(NC(=O)[C@H](C)O)c4)c4ccccc43)[C@H]2C)cc1 ?
rule met

# iterate: CC1CC/C=C\[C@H]2OC34C=CCN(C(C)C)C(=O)[C@H]3N(CCO)C(=O)[C@@H]4C2C(=O)O1 (stereo partly specified)
rule not met

Do the same for COCCCNC(=O)[C@@]1(CCC(=O)OC(C)(C)C)N=C(c2ccc(OCCCO)cc2)O[C@H]1c1ccccc1N=[N+]=[N-] please
rule met

Now consider C=C[C@@H](OC)[C@H](OC(=O)Nc1ccc(OC)cc1)c1ccc(O)c(F)c1 and answer again.
rule not met

###

# assay details: plasmodial surface anion channel blockers, osmotic lysis – cell-based, P. falciparum Indochina, OD700, 18 h, primary screen (AID 1157)
# condition details: P. falciparum Indochina infected erythrocytes, osmotic lysis OD700, 18 h; higher = more signal, called active from +8 up or from −8 down
Reported z-score values for a set of compounds
Lab note: jot down the number only; don't add units.

# structure smiles, val
data = [
    ("NC(=O)NCC#Cc1ccc2c(c1)[C@]1(C(=O)N2)[C@H](C(=O)N2CCN(c3ncccn3)CC2)[C@H]2C(=O)O[C@H](c3ccccc3)[C@H](c3ccccc3)N2[C@@H]1c1ccc(O)cc1", -0.302),
]

Reported z-score for CC1=C2[C@@H](CCc3ccccc3)OB(O)C[C@@H]2[C@@H]2C(=O)N(Cc3ccccc3)C(=O)[C@@H]2C1 : what is it?
0.55

Moving on to CC(C)C[C@@H]1NC(=O)[C@@H]2C[C@H](C(=O)NCCCCCCN)[C@H](c3cccc(OCCO)c3)N2C1=O
0.227

Then what about the compound COc1ccc([Si](C)(C)[C@@H]2[C@@H](CCO)O[C@]3(C(=O)N(Cc4cccc(NC(=O)[C@H](C)O)c4)c4ccccc43)[C@H]2C)cc1 ?
1.35

###

# assay details: resazurin metabolic signal in HepG2 cells – cell-based, resazurin fluorescence, 24 h, PK04 Diversity Set, profiling panel (AID 1172); also: test concentration not given here
# condition details: HepG2 viability, higher = more signal
measurement label: z-score
In your answer, state the number alone without any accompanying words.

These solved cases illustrate the format of a correct answer.
# compound, z-score
records = [
    ("COC(=O)c1c(CC[C@@H](CO)NC(=O)N2CCC[C@H]2Cn2cc(C3(O)CCCCC3)nn2)oc(C(C)=O)c1C(=O)OC", -0.089),
    ("CC1CC/C=C\\[C@H]2OC34C=CCN(Cc5ccccc5)C(=O)[C@H]3N(C(CO)C(C)C)C(=O)[C@@H]4C2C(=O)O1 (some centres undefined)", 0.145),
    ("O=C(NCc1ccc(F)cc1)[C@H]1C[C@H]2C(=O)NCC(=O)N2[C@H]1c1ccc(O)cc1", -1.15),
]

Turning now to a further compound:
Given COC(=O)[C@@]1(Cc2ccc(F)cc2)[C@H]2c3cc(C(=O)N(C)C)n(CCc4ccc(OC)c(Br)c4)c3C[C@H]2CN1C(=O)c1ccccc1 , state its recorded z-score.
-1.73
